assay: unspecified inhibition readout at 50 µM (AID 740); conditions: unspecified screen; hits give high values
Out of some 96,000 compounds screened, about 65 (0.07%) were called active. The sample holds actives, similar compounds and a random draw of the others, so the mix is not that of the screen.
Parameter: inhibition

>>> df
                                   compound   parameter    result
0  CCCCCC(O)CCc1n[nH]c(=S)n1-c1ccccc1 (stereo not drawn)  inhibition  inactive
1    O=C(CC(c1ccccc1)c1ccccc1)Nc1ccc(Cl)cn1  inhibition  inactive
2  O=C(c1ccc(F)cc1)C(CN1CCOCC1)c1ccccc1 (stereo not drawn)  inhibition  inactive

###

// reported inhibition per item
assay: unspecified inhibition readout at 50 µM (AID 740); conditions: unspecified screen; hits give high values
The whole screen tested about 96,000 compounds, of which about 65 (0.07%) were called active. Many of the other results were omitted from the sample, so actives are more common in it than they were.
Give the value, in units of %, as a plain number.

Solved cases below.
>>> print(df.to_string())
                                   molecule  unit_annotation  recorded_number
0      Cc1nnc(SC(=O)N2c3ccccc3Sc3ccccc32)s1                %               30
1  O=C(C1CCN(C2CC(=O)N(c3cccc(Cl)c3)C2=O)CC1)N1CCCC1 (centres undefined)                %             0.33
2       CCOC(=O)/C=C1\SCC(=O)N1CC(=O)NC(C)C                %             0.15

Consider the record given below.
According to the records, this molecule CCS(=O)(=O)c1ccc2oc(SCC(=O)NCCC3=CCCCC3)nc2c1 displays inhibition of 10.4

###

test: unspecified inhibition readout at 50 µM (AID 740); conditions: unspecified screen
Screen size: about 96,000 compounds; about 65 (0.07%) were called active. Rule as the data show it: active = inhibition above about 25%; inactive = the rest. The sample as a whole holds a higher share of actives than the screen did.
Write down the outcome that applies. Available outcomes: class 1 = active, class 0 = inactive

Example entries begin here.
                                   compound  classification
0      O=C(CN1CCN(c2ncccn2)CC1)NCCC1=CCCCC1         class 1
1  CS(=O)(=O)N1CCN(c2ccccc2NC(=O)Cc2ccc(Cl)cc2)CC1         class 0
2   CS(=O)(=O)c1nc(-c2ccccc2)cc(C(F)(F)F)n1         class 0
3  CC(=O)N=C1SC2CS(=O)(=O)CC2N1c1c(Cl)cccc1Cl (stereo not drawn)         class 0
4         Cc1ccc2c(C)c(C(=O)Nc3cccnc3)oc2c1         class 1
5  C=CCn1c(-c2cccn(Cc3cccc(Cl)c3)c2=O)n[nH]c1=S         class 0
6  NS(=O)(=O)c1ccc(CCNC(=O)C2CCCN2C(=O)OCc2ccccc2)cc1 (stereo not drawn)         class 0

We now examine a further compound.
What was the test verdict on O=C(c1ccco1)N1N=C(c2cccs2)CC1c1ccc(F)cc1 (stereo not drawn) ?
class 0
